molecular target: MMP-9 (Homo sapiens); construct: purchased Sino Biological 10327-HNAH; test: MMP-9 inhibition assay (fluorogenic peptide substrate); assay type: biochemical; parameters: scale not given here; conditions: MMP-9; concentration 7.81 µM
ENDPOINT NAME: remaining enzyme activity (% of control)
Form rule: numeric answer, no unit written next to it.

Some compounds with recorded remaining enzyme activity (% of control):
[[record]]
mol_smiles = "Cc1cc(=O)[nH]c(-n2nc(C)c(CCC(=O)NCCOCCOCCNC(=O)c3cnc4c(c3)nc(O)n4C)c2C)n1"
tgt = "MMP-9 (Homo sapiens)"
readout_number = 87.83

[[record]]
mol_smiles = "Cc1cc(=O)[nH]c(-n2nc(C)c(CCC(=O)NCCNC(=O)CC(=O)C=CCCCCNC(=O)c3cnc4c(c3)nc(O)n4C)c2C)n1"
tgt = "MMP-9 (Homo sapiens)"
readout_number = 88.09


Problem: What remaining enzyme activity (% of control) value was documented for this compound, Cc1cc(=O)[nH]c(-n2nc(C)c(CCC(=O)NCCNC(=O)c3cnc4c(c3)nc(O)n4C)c2C)n1 ?
Solution: 95.90

* * *

Each entry below lists one item and its recorded remaining activity at 0.0001024 µM value.
biological target: bovine carbonic anhydrase II (CAII) (Bos taurus); construct: purchased Sigma-Aldrich C7749; experiment: Carbonic anhydrase II inhibition assay (esterase activity on p-nitrophenyl acetate); assay type: biochemical; settings: 0.1024 nM compound; source data of Fig. 2c; read-out: Normalized CA II Activity (Mean)
Sequence (P00921 whole entry): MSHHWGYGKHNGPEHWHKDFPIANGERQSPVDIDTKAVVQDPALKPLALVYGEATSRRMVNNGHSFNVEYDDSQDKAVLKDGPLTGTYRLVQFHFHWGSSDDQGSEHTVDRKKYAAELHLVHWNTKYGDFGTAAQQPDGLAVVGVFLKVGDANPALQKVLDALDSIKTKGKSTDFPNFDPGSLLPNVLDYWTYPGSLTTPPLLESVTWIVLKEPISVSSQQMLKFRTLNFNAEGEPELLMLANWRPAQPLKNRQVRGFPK
Give the value in % but do not write % after it.

Some compounds with recorded remaining activity at 0.0001024 µM:
[[record]]
compound = "NS(=O)(=O)c1ccc(NCc2ccc(C(=O)NCCNC(=O)/C=C/c3ccc(-c4ccccc4C(F)(F)F)o3)cc2)cc1 [Compound C-1]"
readout_number = 93.8

[[record]]
compound = "NS(=O)(=O)c1ccc(NC(=O)c2ccc(-n3cc(CCC(=O)NCCNC(=O)/C=C/c4ccc(-c5ccccc5C(F)(F)F)o4)nn3)cc2)cc1 [Compound C-4]"
readout_number = 96.8

[[record]]
compound = "NS(=O)(=O)c1ccc(NC(=O)/C=C/c2ccc(-c3ccccc3C(F)(F)F)o2)cc1 [Compound C-0]"
readout_number = 93.3

[[record]]
compound = "NS(=O)(=O)c1ccc(NC(=O)COc2ccccc2OCC(=O)NCCNC(=O)/C=C/c2ccc(-c3ccccc3C(F)(F)F)o2)cc1 [Compound C-2]"
readout_number = 91.3


Note: attention shifts to another entry.
Problem: What remaining activity at 0.0001024 µM value was documented for this compound, NS(=O)(=O)c1ccc(NC(=O)COCC(=O)NCCNC(=O)/C=C/c2ccc(-c3ccccc3C(F)(F)F)o2)cc1 [Compound C-5] ?
Solution: 101

* * *

Each entry below lists one item and its recorded remaining enzyme activity (% of control) value.
biological target: MMP-9 (Homo sapiens); construct: purchased Sino Biological 10327-HNAH; experiment: MMP-9 inhibition assay (fluorogenic peptide substrate); assay type: biochemical; design: scale not given here; details: MMP-9; concentration 48.76 µM
Form rule: numeric answer, no unit written next to it.

Some molecules with recorded remaining enzyme activity (% of control):
[[record]]
mol_smiles = "O=C(C=CCCCCNC(=O)c1cncc(O)c1)CC(=O)NCC12CC3CC(CC(C3)C1)C2"
readout_number = 61.33

[[record]]
mol_smiles = "O=C(CNC(=O)NC12CC3CC(CC(C3)C1)C2)NCCOCCOCCNC(=O)c1cncc(O)c1"
readout_number = 91.82

[[record]]
mol_smiles = "Cc1cc(=O)[nH]c(-n2nc(C)c(CCC(=O)NCc3c[nH]nn3)c2C)n1"
readout_number = 85.00

[[record]]
mol_smiles = "Cc1cc(=O)[nH]c(-n2nc(C)c(CCC(=O)NCCCCCCCCNC(=O)CCC(=O)NCc3c[nH]nn3)c2C)n1"
readout_number = 86.75

[[record]]
mol_smiles = "O=C(CCCCCCC(=O)NCC12CC3CC(CC(C3)C1)C2)NCc1c[nH]nn1"
readout_number = 91.07

[[record]]
mol_smiles = "Cc1cc(=O)[nH]c(-n2nc(C)c(CCC(=O)NCCOCCOCCNC(=O)c3cncc(O)c3)c2C)n1"
readout_number = 84.90

[[record]]
mol_smiles = "O=C(CNC(=O)NC12CC3CC(CC(C3)C1)C2)NCCSCC(=O)NCc1c[nH]nn1"
readout_number = 90.00

[[record]]
mol_smiles = "O=C(CNC(=O)NC12CC3CC(CC(C3)C1)C2)NCc1c[nH]nn1"
readout_number = 92.70

[[record]]
mol_smiles = "O=C(CNC(=O)NC12CC3CC(CC(C3)C1)C2)NCCCCCCCCNC(=O)c1cncc(O)c1"
readout_number = 80.00

[[record]]
mol_smiles = "Cc1cc(=O)[nH]c(-n2nc(C)c(CCC(=O)NCCSCC(=O)NCc3c[nH]nn3)c2C)n1"
readout_number = 92.11


Problem: What remaining enzyme activity (% of control) value was documented for this molecule, Cc1cc(=O)[nH]c(-n2nc(C)c(CCC(=O)NCCOCCOCCNC(=O)CCC(=O)NCc3c[nH]nn3)c2C)n1 ?
Solution: 88.14

Problem: What remaining enzyme activity (% of control) value was documented for this molecule, Cc1cc(=O)[nH]c(-n2nc(C)c(CCC(=O)NCCCCCCCCNC(=O)c3cncc(O)c3)c2C)n1 ?
Solution: 87.31

* * *

Molecular target: MMP-9 (Homo sapiens, UniProt P14780)
Construct: purchased Sino Biological 10327-HNAH
Sequence (P14780 107-707 limits assumed): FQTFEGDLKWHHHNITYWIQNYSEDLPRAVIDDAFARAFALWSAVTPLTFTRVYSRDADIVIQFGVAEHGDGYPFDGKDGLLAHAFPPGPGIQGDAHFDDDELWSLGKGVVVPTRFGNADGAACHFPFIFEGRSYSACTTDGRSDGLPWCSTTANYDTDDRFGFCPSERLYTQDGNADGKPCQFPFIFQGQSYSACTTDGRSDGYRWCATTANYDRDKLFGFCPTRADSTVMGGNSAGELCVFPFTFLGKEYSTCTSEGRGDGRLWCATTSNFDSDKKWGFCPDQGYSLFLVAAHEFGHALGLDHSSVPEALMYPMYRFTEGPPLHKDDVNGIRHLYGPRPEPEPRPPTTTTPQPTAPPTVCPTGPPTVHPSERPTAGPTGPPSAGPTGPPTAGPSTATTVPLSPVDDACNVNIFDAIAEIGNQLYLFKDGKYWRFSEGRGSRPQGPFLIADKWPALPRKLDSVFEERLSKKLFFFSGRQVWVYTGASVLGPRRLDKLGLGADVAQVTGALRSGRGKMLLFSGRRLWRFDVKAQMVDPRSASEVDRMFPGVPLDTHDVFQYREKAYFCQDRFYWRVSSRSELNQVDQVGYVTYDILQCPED
Assay: MMP-9 inhibition assay (fluorogenic peptide substrate)
Format: biochemical
Design: scale not given here
Conditions: MMP-9; concentration 1219.00 µM
Procedure: The inhibition by the small molecule compounds against MMP-2/MMP-9 was measured using an assay probing the enzyme proteolytic activity on the substrate DNP-Pro-Leu-Gly-Met-Trp-Ser-Arg (Enzo Life Sciences, USA). All assays were performed in the assay buffer containing 50 mM Tris, 100 mM NaCl. […] The rate of hydrolysis was monitored by quantifying the emission at 360 nm (ex: 280 nm). The emission was measured with intervals of the 30 s for 30 min with Synergy H1 Plate Reader (Agilent, USA). […]
Under this convention, fulfilled denotes remaining enzyme activity (% of control) strictly below 10 and not fulfilled denotes remaining enzyme activity (% of control) at or above 10.

[[record]]
compound = "O=C(CNC(=O)NC12CC3CC(CC(C3)C1)C2)NCCCCCCCCNC(=O)c1cncc(O)c1 [66+828 Linker 4]"
category = "not fulfilled"

[[record]]
compound = "O=C(CNC(=O)NC12CC3CC(CC(C3)C1)C2)NCCSCC(=O)NCc1c[nH]nn1 [66+787 Linker 24]"
category = "not fulfilled"

[[record]]
compound = "Cc1cc(=O)[nH]c(-n2nc(C)c(CCC(=O)NCc3c[nH]nn3)c2C)n1 [693+787 Linker 1]"
category = "fulfilled"

[[record]]
compound = "O=C(CNC(=O)NC12CC3CC(CC(C3)C1)C2)NCc1c[nH]nn1 [66+787 Linker 1]"
category = "not fulfilled"

[[record]]
compound = "O=C(C=CCCCCNC(=O)c1cncc(O)c1)CC(=O)NCC12CC3CC(CC(C3)C1)C2 [66+828 Linker 12]"
category = "fulfilled"


Problem: Please check: remaining enzyme activity (% of control) for Cc1cc(=O)[nH]c(-n2nc(C)c(CCC(=O)NCCOCCOCCNC(=O)CCC(=O)NCc3c[nH]nn3)c2C)n1 [693+787 Linker 10] , strictly under 10 or not?
Solution: not fulfilled

Problem: Please check: remaining enzyme activity (% of control) for Cc1cc(=O)[nH]c(-n2nc(C)c(CCC(=O)NCCCCCCCCNC(=O)c3cncc(O)c3)c2C)n1 [693+828 Linker 4] , strictly under 10 or not?
Solution: fulfilled

Problem: Please check: remaining enzyme activity (% of control) for O=C(CCCCCCC(=O)NCC12CC3CC(CC(C3)C1)C2)NCc1c[nH]nn1 [66+787 Linker 4] , strictly under 10 or not?
Solution: not fulfilled

Problem: Please check: remaining enzyme activity (% of control) for Cc1cc(=O)[nH]c(-n2nc(C)c(CCC(=O)NCCCCCCCCNC(=O)CCC(=O)NCc3c[nH]nn3)c2C)n1 [693+787 Linker 4] , strictly under 10 or not?
Solution: fulfilled

Problem: Please check: remaining enzyme activity (% of control) for Cc1cc(=O)[nH]c(-n2nc(C)c(CCC(=O)NCCOCCOCCNC(=O)c3cncc(O)c3)c2C)n1 [693+828 Linker 10] , strictly under 10 or not?
Solution: not fulfilled

Problem: Please check: remaining enzyme activity (% of control) for O=C(CNC(=O)NC12CC3CC(CC(C3)C1)C2)NCCOCCOCCNC(=O)c1cncc(O)c1 [66+828 Linker 10] , strictly under 10 or not?
Solution: not fulfilled

* * *

molecular target: MMP-2 (Homo sapiens); construct: purchased Sino Biological 10082-HNAH; assay: MMP-2 inhibition assay (fluorogenic peptide substrate); format: biochemical; conditions: MMP-2; concentration 0.49 µM
Sequence (P08253 110-660): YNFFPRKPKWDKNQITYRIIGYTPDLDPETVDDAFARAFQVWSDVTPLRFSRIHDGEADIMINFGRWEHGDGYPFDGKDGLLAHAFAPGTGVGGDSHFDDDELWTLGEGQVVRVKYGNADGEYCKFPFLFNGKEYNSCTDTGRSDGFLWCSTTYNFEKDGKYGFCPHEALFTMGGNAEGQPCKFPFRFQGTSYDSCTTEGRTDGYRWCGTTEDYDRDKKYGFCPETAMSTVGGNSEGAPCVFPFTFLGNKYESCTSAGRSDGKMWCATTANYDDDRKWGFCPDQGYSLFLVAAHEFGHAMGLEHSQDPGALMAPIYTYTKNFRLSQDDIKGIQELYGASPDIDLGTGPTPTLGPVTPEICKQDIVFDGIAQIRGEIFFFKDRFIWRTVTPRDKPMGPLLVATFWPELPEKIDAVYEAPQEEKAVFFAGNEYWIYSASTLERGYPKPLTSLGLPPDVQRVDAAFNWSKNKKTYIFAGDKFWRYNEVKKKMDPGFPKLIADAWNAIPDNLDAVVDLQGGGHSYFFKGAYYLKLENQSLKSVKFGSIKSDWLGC
ENDPOINT NAME: remaining activity (%)
Form rule: numeric answer, no unit written next to it.

Some molecules with recorded remaining activity (%):
[[record]]
mol_smiles = "Cn1c(O)nc2cc(C(=O)NCC34CC5CC(CC(C5)C3)C4)cnc21"
readout_number = 97.92

[[record]]
mol_smiles = "Cn1c(O)nc2cc(C(=O)NCCCC/C=C/C(=O)CC(=O)NCC34CC5CC(CC(C5)C3)C4)cnc21"
readout_number = 99.61

[[record]]
mol_smiles = "Cn1c(O)nc2cc(C(=O)NCCCCCCCCNC(=O)CNC(=O)NC34CC5CC(CC(C5)C3)C4)cnc21"
readout_number = 97.75

[[record]]
mol_smiles = "Cc1cc(=O)[nH]c(-n2nc(C)c(CCC(=O)NCCNC(=O)c3cnc4c(c3)nc(O)n4C)c2C)n1"
readout_number = 101.27

[[record]]
mol_smiles = "Cc1cc(=O)[nH]c(-n2nc(C)c(CCC(=O)NCCCCCCCCNC(=O)c3cnc4c(c3)nc(O)n4C)c2C)n1"
readout_number = 100.66


Note: attention shifts to another entry.
Problem: Tell me reported remaining activity (%) for Cn1c(O)nc2cc(C(=O)NCCSCC(=O)NCC34CC5CC(CC(C5)C3)C4)cnc21 , tested with MMP-2 (Homo sapiens).
Solution: 110.62
